FYI, the data here is from patent US7517874B2.

Target: rat CB2 receptor (rCB2) (Rattus norvegicus, UniProt Q9QZN9)
Sequence (Q9QZN9 1-360): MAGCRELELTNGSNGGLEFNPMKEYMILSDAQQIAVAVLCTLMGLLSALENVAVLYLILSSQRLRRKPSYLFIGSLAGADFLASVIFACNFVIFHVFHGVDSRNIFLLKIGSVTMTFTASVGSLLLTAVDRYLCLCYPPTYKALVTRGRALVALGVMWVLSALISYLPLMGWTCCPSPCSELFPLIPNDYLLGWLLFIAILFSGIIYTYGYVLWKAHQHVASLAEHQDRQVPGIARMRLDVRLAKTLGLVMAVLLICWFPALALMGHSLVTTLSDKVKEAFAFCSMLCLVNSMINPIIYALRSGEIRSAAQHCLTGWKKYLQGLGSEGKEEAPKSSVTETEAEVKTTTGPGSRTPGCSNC
Assay: cell-based
Assay type: cell-based
Settings: agonist or inverse agonist at rCB2
measured parameter: +/− RCB2

[[record]]
compound = "COCCNC(=O)[C@@H](NC(=O)c1nc(-c2ccccc2)n2c1CN(C)CCC2)C(C)(C)C"
measured_parameter = "+/− RCB2"
observed_result = "+"

[[record]]
compound = "CNC(=O)[C@@H](NC(=O)c1nc(-c2ccc(C)cc2F)n2c1CN(CC1CC1)CCC2)C(C)(C)C"
measured_parameter = "+/− RCB2"
observed_result = "−"

[[record]]
compound = "CC12CCC(C1)C(C)(C)C2NC(=O)c1nc(-c2ccccc2)n2c1CN(C(=O)C1CCOC1)CC2 (stereo not shown)"
measured_parameter = "+/− RCB2"
observed_result = "−"

[[record]]
compound = "CNC(=O)[C@@H](NC(=O)c1nc(-c2ccccc2)n2c1CN(C(=O)c1ccco1)CC2)C(C)(C)C"
measured_parameter = "+/− RCB2"
observed_result = "−"


---

Target: rat CB2 receptor (rCB2) (Rattus norvegicus, UniProt Q9QZN9)
Sequence (Q9QZN9 1-360): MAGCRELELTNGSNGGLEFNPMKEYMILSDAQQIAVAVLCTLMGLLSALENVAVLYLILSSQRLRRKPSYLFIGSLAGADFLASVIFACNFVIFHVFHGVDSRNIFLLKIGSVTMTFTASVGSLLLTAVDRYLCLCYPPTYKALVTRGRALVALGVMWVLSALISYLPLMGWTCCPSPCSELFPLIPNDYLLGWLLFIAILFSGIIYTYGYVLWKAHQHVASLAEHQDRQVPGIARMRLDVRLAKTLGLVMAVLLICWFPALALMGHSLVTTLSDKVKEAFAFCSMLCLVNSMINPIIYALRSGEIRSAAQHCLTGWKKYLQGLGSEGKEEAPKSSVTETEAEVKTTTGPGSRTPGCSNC
Assay: cell-based
Assay type: cell-based
Settings: agonist or inverse agonist at rCB2
measured parameter: +/− RCB2

[[record]]
compound = "CCN1CCn2c(-c3ccccc3)nc(C(=O)NC3C4(C)CCC(C4)C3(C)C)c2C1 (stereo not drawn) [Compound 144]"
measured_parameter = "+/− RCB2"
observed_result = "−"

[[record]]
compound = "CNC(=O)[C@@H](NC(=O)c1nc(-c2ccccn2)n2c1CN(C)CCC2)C(C)(C)C [Compound 395]"
measured_parameter = "+/− RCB2"
observed_result = "+"

[[record]]
compound = "C=C(C)c1nc(C(=O)N[C@H](C(=O)NC)C(C)(C)C)c2n1CCN(C)C2 [Compound 267]"
measured_parameter = "+/− RCB2"
observed_result = "+"

[[record]]
compound = "CNC(=O)[C@@H](NC(=O)c1nc(CCc2ccsc2)n2c1CN(C)CCC2)C(C)(C)C [Compound 495]"
measured_parameter = "+/− RCB2"
observed_result = "+"

[[record]]
compound = "CNC(=O)[C@@H](NC(=O)c1nc(-c2cccc(F)c2)n2c1CN(C)CC2)C(C)(C)C [Compound 244]"
measured_parameter = "+/− RCB2"
observed_result = "+"

[[record]]
compound = "COC(=O)[C@@H](NC(=O)c1nc(-c2ccccc2)n2c1CN(C)CCC2)C(C)(C)C [Compound 467]"
measured_parameter = "+/− RCB2"
observed_result = "+"

[[record]]
compound = "CNC(=O)[C@@H](NC(=O)c1nc(-c2ccccc2)n2c1CN(S(=O)(=O)c1ccccc1)CC2)C(C)(C)C [Compound 96]"
measured_parameter = "+/− RCB2"
observed_result = "−"

[[record]]
compound = "CNC(=O)[C@@H](NC(=O)c1nc(-c2ccc(Cl)cc2F)n2c1CN(C)CCC2)C(C)(C)C [Compound 366]"
measured_parameter = "+/− RCB2"
observed_result = "+"

[[record]]
compound = "CNC(=O)c1cc(-c2nc(C(=O)N[C@H](C(=O)NC)C(C)(C)C)c3n2CCCN(C)C3)ccc1F [Compound 406]"
measured_parameter = "+/− RCB2"
observed_result = "+"

[[record]]
compound = "CNC(=O)[C@@H](NC(=O)c1nc(-c2ccccc2)n2c1CN(CC(C)(C)C)CC2)C(C)(C)C [Compound 55]"
measured_parameter = "+/− RCB2"
observed_result = "−"

[[record]]
compound = "COC(=O)[C@@H](NC(=O)c1nc(-c2ccccc2)n2c1CN(C)CC2)C(C)(C)C [Compound 86]"
measured_parameter = "+/− RCB2"
observed_result = "+"

[[record]]
compound = "CNC(=O)[C@H](CC(C)C)NC(=O)c1nc(-c2cc(F)c(F)cc2F)n2c1CN(C)CCC2 [Compound 538]"
measured_parameter = "+/− RCB2"
observed_result = "+"

[[record]]
compound = "C[C@@H](NC(=O)c1nc(-c2ccccc2)n2c1CN(C(=O)C1CC1)CC2)C1CCCCC1 [Compound 132]"
measured_parameter = "+/− RCB2"
observed_result = "−"

[[record]]
compound = "CN1CCCn2c(-c3ccc(Cl)cc3F)nc(C(=O)N[C@@H](CC(C)(C)C)C(N)=O)c2C1 [Compound 584]"
measured_parameter = "+/− RCB2"
observed_result = "+"

[[record]]
compound = "CNC(=O)[C@@H](NC(=O)c1nc(C(C)=C(C)C)n2c1CN(C)CCC2)C(C)(C)C [Compound 454]"
measured_parameter = "+/− RCB2"
observed_result = "−"

[[record]]
compound = "CNC(=O)[C@H](CC(C)C)NC(=O)c1nc(C2=CCCC2)n2c1CN(C)CC2 [Compound 279]"
measured_parameter = "+/− RCB2"
observed_result = "+"

[[record]]
compound = "CNC(=O)[C@@H](NC(=O)c1nc(CCCC2CCCC2)n2c1CN(C)CCC2)C(C)(C)C [Compound 494]"
measured_parameter = "+/− RCB2"
observed_result = "−"

[[record]]
compound = "CCS(=O)(=O)N1CCn2c(-c3ccc(Cl)cc3)nc(C(=O)NCCC(C)C)c2C1 [Compound 116]"
measured_parameter = "+/− RCB2"
observed_result = "−"

[[record]]
compound = "CNC(=O)[C@@H](NC(=O)c1nc(-c2ccc(-n3cccn3)cc2)n2c1CN(C)CCC2)C(C)(C)C [Compound 390]"
measured_parameter = "+/− RCB2"
observed_result = "−"

[[record]]
compound = "CN(C)C(=O)[C@@H](NC(=O)c1nc(-c2ccccc2)n2c1CNCC2)C(C)(C)C [Compound 196]"
measured_parameter = "+/− RCB2"
observed_result = "−"

[[record]]
compound = "CC(C)CN1CCn2c(-c3ccccc3)nc(C(=O)NC3C4(C)CCC(C4)C3(C)C)c2C1 (stereo not drawn) [Compound 142]"
measured_parameter = "+/− RCB2"
observed_result = "−"

